Hey, just so you know, these numbers are from PubChem BioAssay (NCATS).

# assay: qHTS for differential inhibitors of proliferation of Plasmodium falciparum line 7G8 (AID 1815);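 also: parasite growth measured after three days of incubation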
# conditions: Plasmodium falciparum 7G8 proliferation inhibition; series mostly up to 28.7 µM
Records with an inconclusive call do not appear. The source made the active and inactive calls. Calls follow the shape of the dose curve; as a rule, active = well fitted curve in the direction sought with a large enough effect; inconclusive = small, poorly fitted or top-dose-only effect, or another doubt; inactive = no such curve, though single readings can be large or run the other way.
Select the correct class. Options are active, inactive and nothing else.

{"columns": ["molecule", "class-assignment"],
 "data": [
  ["CCCN(CCC)[C@@H]1CCc2ccc(O)cc2C1", "active"],
  ["CCCN(CCC)C1CCc2ccc(O)cc2C1 (configuration not stated)", "active"],
  ["CCCCc1ccc(C(=O)O)nc1", "inactive"],
  ["NC(CP(=O)(O)O)C(=O)O (configuration not stated)", "inactive"],
  ["CC[C@@H]1C(=O)OC[C@@H]1Cc1cncn1C", "inactive"]
]}

Field: outcome | Entry: NC(=O)CN1CC(O)CC1=O (configuration not stated) inactive

Look up the recorded call for O=C(Cc1ccc(Cl)c(Cl)c1)N1CCCCC1CN1CCCC1 (configuration not stated) in this test. active
